System: 186277-243-T-J2-PDC complex spheroids, viability
Experiment: Anticancer human tumor 186277-243-T-J2-PDC patient-derived colon adenocarcinoma cell line growth inhibition [RAS]
Settings: second compound 0.00949 µM; first compound 3.16 µM; active compounds read low
measuredEndpoint: viability, T/C

{"compound": "CC(=O)OC12COC1CC(O)C1(C)C(=O)C(O)C3=C(C)C(OC(=O)C(O)C(NC(=O)OC(C)(C)C)c4ccccc4)CC(O)(C(OC(=O)c4ccccc4)C21)C3(C)C (configuration not stated) + CCn1c(-c2cccnc2C(C)OC)c2c3cc(ccc31)N1CCOC(CC(NC(=O)C(C(C)C)N(C)C(=O)C3(F)CCN(C(=O)C#CC(C)(C)N(C)C)CC3)C(=O)N3CCCC(N3)C(=O)OCC(C)(C)C2)C1", "result": "4.48%"}

# ---- query compound ----
In: Lab note: need viability, T/C for CC(C)NCC(C(=O)N1CCN(c2ncnc3c2C(C)CC3O)CC1)c1ccc(Cl)cc1 (configuration not stated) + CCn1c(-c2cc(N3CCN(C)CC3)cnc2C(C)OC)c2c3cc(ccc31)-c1csc(n1)CC(NC(=O)C1CC1C)C(=O)N1CCCC(N1)C(=O)OCC(C)(C)C2 on 186277-243-T-J2-PDC complex spheroids, viability, anyone have it?
Out: 4.9%

---

Tested on: 186277-243-T-J2-PDC complex spheroids, viability
Assay: Anticancer human tumor 186277-243-T-J2-PDC cell line growth inhibition [RAS];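 further: spheroids exposed to compounds for 7 days before viability read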
Conditions: second compound 0.0949 µM; first compound 0.0316 µM; active compounds read low
# class 1 = viability, T/C below 7% (exclusive); class 0 = viability, T/C at/above 7%

Use the examples below as a reference point.
{"compound": "C[C@@H](NC(=O)c1ncnc(N)c1Cl)c1ncc(C(=O)Nc2cc(C(F)(F)F)c(Cl)cn2)s1 + CCn1c(-c2cc(N3CCN(C)CC3)cnc2C(C)OC)c2c3cc(ccc31)-c1csc(n1)CC(NC(=O)C1CC1C)C(=O)N1CCCC(N1)C(=O)OCC(C)(C)C2", "targetOfAssay": "186277-243-T-J2-PDC complex spheroids, viability", "cat": "class 0"}
{"compound": "CC(C)NCC(C(=O)N1CCN(c2ncnc3c2C(C)CC3O)CC1)c1ccc(Cl)cc1 (stereo unspecified) + CCn1c(-c2cccnc2C(C)OC)c2c3cc(ccc31)N1CCOC(CC(NC(=O)C(C(C)C)N(C)C(=O)C3(F)CCN(C(=O)C#CC(C)(C)N(C)C)CC3)C(=O)N3CCCC(N3)C(=O)OCC(C)(C)C2)C1", "targetOfAssay": "186277-243-T-J2-PDC complex spheroids, viability", "cat": "class 0"}
{"compound": "CC(C)n1nc(-c2ccc3oc(N)nc3c2)c2c(N)ncnc21 + CCn1c(-c2cc(N3CCN(C)CC3)cnc2C(C)OC)c2c3cc(ccc31)-c1csc(n1)CC(NC(=O)C1CC1C)C(=O)N1CCCC(N1)C(=O)OCC(C)(C)C2", "targetOfAssay": "186277-243-T-J2-PDC complex spheroids, viability", "cat": "class 1"}

In: Input NC1c2ccccc2OC12CCN(c1cnc3c(N4CCCc5ncccc54)n[nH]c3n1)CC2 (stereo unspecified) + CCn1c(-c2cc(N3CCN(C)CC3)cnc2C(C)OC)c2c3cc(ccc31)-c1csc(n1)CC(NC(=O)C1CC1C)C(=O)N1CCCC(N1)C(=O)OCC(C)(C)C2 ; condition: viability, T/C strictly below 7%. Does it hold?
Out: class 1
